All values here come from patent US20240132603A1.

molecular target: T1, human CCR8 (human, UniProt P51685 1-355); assay: FACS, CHO-K1-hCCR8 cells
T1 construct: whole, on cells; construct used for the overexpressing cell lines is not described; also called hCCR8
T1 sequence (P51685 whole entry): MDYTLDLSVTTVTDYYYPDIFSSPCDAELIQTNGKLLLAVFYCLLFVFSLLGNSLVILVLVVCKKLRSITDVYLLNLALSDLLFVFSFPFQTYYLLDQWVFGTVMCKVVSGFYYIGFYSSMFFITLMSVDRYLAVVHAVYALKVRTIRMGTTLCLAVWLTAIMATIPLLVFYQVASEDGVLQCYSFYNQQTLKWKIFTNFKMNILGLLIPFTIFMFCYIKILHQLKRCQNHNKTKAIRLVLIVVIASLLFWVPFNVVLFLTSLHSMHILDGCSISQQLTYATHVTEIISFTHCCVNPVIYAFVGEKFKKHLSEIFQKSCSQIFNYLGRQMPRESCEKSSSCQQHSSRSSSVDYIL
Consider the following binders; for each one, report its pEC50.
Answers are plain numbers, as −log10 of the molar value.

Before answering, review these 3 worked examples.
PR004324 (antibody, human IgG1, kappa, V domains shown, PTM variant of PR004128, IgG1 with DE mutation) VH: EVQLVESGGGLVQPKGSLKLSCAASGFTFNTYAMNWVRQAPGKGLEWVARIRSKSNNYATYYADSVKDRFTISRDDSQSMLYLQMNNLKTEDTAMYYCVRGKENGNYYAMDFWGQGTSVTVSA VL: DIVMTQAAPSVPVTPGESVSISCRSSKSLLHSNAKIYLYWFLQRPGQSPQLLIYRMSNLASGVPDRFSGSGSGTAFTLRISRVEAEDVGVYYCMQHLEYPLTFGAGTKLEIKR    9.17
PR004327 (antibody, human IgG1, kappa, V domains shown, PTM variant of PR004128, IgG1 with DE mutation) VH: EVQLVESGGGLVQPKGSLKLSCAASGFTFQTYAMNWVRQAPGKGLEWVARIRSKSNNYATYYADSVKDRFTISRDDSQSMLYLQMNNLKTEDTAMYYCVRGKENGNYYAMDFWGQGTSVTVSA VL: DIVMTQAAPSVPVTPGESVSISCRSSKSLLHSNGKIYLYWFLQRPGQSPQLLIYRMSNLASGVPDRFSGSGSGTAFTLRISRVEAEDVGVYYCMQHLEYPLTFGAGTKLEIKR    8.97
PR004329 (antibody, human IgG1, kappa, V domains shown, PTM variant of PR004128, IgG1 with DE mutation) VH: EVQLVESGGGLVQPKGSLKLSCAASGFTFNTYAMNWVRQAPGKGLEWVARIRSKSNNYATYYADSVKDRFTISRDDSQSMLYLQMNNLKTEDTAMYYCVRGKEQGNYYAMDFWGQGTSVTVSA VL: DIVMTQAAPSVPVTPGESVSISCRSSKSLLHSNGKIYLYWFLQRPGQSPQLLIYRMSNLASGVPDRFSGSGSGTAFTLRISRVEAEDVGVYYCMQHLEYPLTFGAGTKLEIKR    9.77

Next item in the queue.
State the recorded pEC50 for this entry: PR004328 (antibody, human IgG1, kappa, V domains shown, PTM variant of PR004128, IgG1 with DE mutation) VH: EVQLVESGGGLVQPKGSLKLSCAASGFTFSTYAMNWVRQAPGKGLEWVARIRSKSNNYATYYADSVKDRFTISRDDSQSMLYLQMNNLKTEDTAMYYCVRGKENGNYYAMDFWGQGTSVTVSA VL: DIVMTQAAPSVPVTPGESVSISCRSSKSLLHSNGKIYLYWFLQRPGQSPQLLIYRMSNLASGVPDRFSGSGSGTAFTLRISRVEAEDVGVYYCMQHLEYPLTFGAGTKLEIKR 9.00
